Answer each item with its documented T/C.
Tested on: P388 leukemia ip, CD2F1 mice, survival T/C
Experiment: NCI In Vivo Anticancer Drug Screen. Data for tumor model P388 Leukemia (intraperitoneal) in CD2F1 (CDF1) mice
Details: endpoint: median survival time; dose: 100.0 mg/kg/injection; schedule: Q01DX009 (ip); vehicle: saline; higher = longer survival
Toxic doses and inconclusive results are not listed.

Reported T/C for CC(=O)C(N=Nc1cc([N+](=O)[O-])cc(S(=O)(=O)O)c1O)C(=O)Nc1ccccc1.[Cr] (stereo unspecified) was 99 % of control

Reported T/C for `CCCCCCCCCC#CC(=O)OC` was 105 % of control

Reported T/C for `CN(C)c1ccc(/C=C/c2ccnc3ccccc23)c(F)c1` was 92 % of control

Reported T/C for `CCN(CC)c1ccc([P+](=O)O)cc1` was 100 % of control

Reported T/C for `CCN(CC)CCOCc1cccc2c(=O)cc(-c3ccccc3)oc12` was 101 % of control

New cases:
Reported T/C for `CCCCCC(Cl)(CC)CCCCC` was 110 % of control
